Recorded values, source PubChem BioAssay (EPA / NIEHS).

experiment: ATG_E_Box_CIS: Attagene CIS-FACTORIAL HepG2 Assay for human Enhancer Box (E-box) (AID 2282936); conditions: HepG2 E-box cis-reporter transcription, actives raise or lower the signal
The source made the active and inactive calls. Rule for the calls: active = hit-call score of the fitted dose curve at least 0.9, where 1 is the maximum; inactive = score below 0.9.
Your reply should match one of these outcome classes. active, inactive

# example entries with known answers
query: # outcome recorded in this test, key = `CC(C)(C)c1ccccc1O`
result: inactive

query: Assay outcome for `C#CCO` : what was it?
result: inactive

---
query: GET /call?item= `Cc1cc(Cl)ccc1O` returns the recorded outcome of this test.
result: inactive

----------
read-out: Urokinase-type plasminogen activator receptor (uPAR), PLAUR (gene 5329); experiment: BSK_CASM3C_uPAR: BioMAP Diversity Plus: CASM3C Assay for Urokinase-type plasminogen activator receptor (uPAR) Biomarker Activity (AID 2283054); conditions: primary human coronary artery smooth muscle cells; actives raise or lower the signal;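 note: cell-surface uPAR protein level quantified by ELISA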
Activity calls are given as the source filed them. Rule for the calls: active = hit-call score of the fitted dose curve at least 0.9, where 1 is the maximum; inactive = score below 0.9.
Parameter call: string, one of active, inactive

Please review the entries below; each comes with its answer.
query: Test call, this compound: O=c1oc2ccccc2c(O)c1C(CC(O)c1ccc(-c2ccc(Br)cc2)cc1)c1ccccc1 (configuration not stated)
result: active

query: Per the assay record, what outcome was assigned to `Cc1ccc2nc3sc(=O)sc3nc2c1` ?
result: active

query: Which outcome was assigned to `O=C1C=CC(=O)c2ccccc21` in this test?
result: active

query: Which outcome was entered for the compound OC(Cc1ccccc1Cl)(Cn1cncn1)C1(Cl)CC1 (configuration not stated) in this test?
result: inactive

New cases:
query: What was the test verdict on `Cc1cccc(OP(=O)(Oc2cccc(C)c2)Oc2cccc(C)c2)c1` ?
result: inactive

query: Outcome logged for `Nc1c(Oc2ccccc2)cc(O)c2c1C(=O)c1ccccc1C2=O` in this assay:
result: inactive

query: Each compound tested received a call. Report the one for `C[C@]12CC[C@@H](O)C[C@@H]1CC[C@@H]1[C@@H]2CC[C@]2(C)C(=O)CC[C@@H]12` .
result: inactive

query: Tell me the recorded outcome of this test for `O=C(Cc1ccccc1)OCCc1ccccc1` .
result: inactive

query: Assay result, entry CC(C=O)Cc1ccc2c(c1)OCO2 (configuration not stated) — outcome?
result: inactive

----------
assay: CCTE_Shafer_MEA_dev_correlation_coefficient_mean: CCTE's Neural Network Formation Assay for Mean Correlation Coefficient, Shafer Lab (AID 2284093);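 for AC50: well mean pairwise spike train correlation integrated as AUC over recording days 5 to 12; potency fitted for loss of correlation relative to DMSO vehicle wells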
Calls of active or inactive are those of the source. Rule for the calls: active = hit-call score of the fitted dose curve at least 0.9, where 1 is the maximum; inactive = score below 0.9.
metric: AC50

Some entries whose results are on file:
query: # query: AC50 of entry OC(Cc1ccccc1Cl)(Cn1[nH]cnc1=S)C1(Cl)CC1 (centres undefined)
result: 21.5 µM (active)

query: Any idea what its AC50 is? The molecule is `CC(=O)C(F)(F)C(F)(F)F`
result: inactive

query: I'd like to know its AC50. The molecule in question is `O=S(=O)(F)C(F)(F)C(F)(F)C(F)(F)C(F)(F)F`
result: inactive

query: Entry `CC(F)(F)CC(F)(F)F` has what AC50?
result: inactive

query: Which AC50 reading was recorded for the molecule `Cc1ccccc1OP(=O)(Oc1ccccc1C)Oc1ccccc1C` ?
result: 15 µM (active)

***
query: # get_value(readout='AC50', item= `CC1(C)[C@H](C(=O)O[C@H](C#N)c2cccc(Oc3ccccc3)c2)[C@@H]1/C=C(\Cl)C(F)(F)F` )
result: 5.11 µM (active)

query: Give the measured AC50 of C=CC(F)(C(F)(F)F)C(F)(F)C(F)(F)F (centres undefined) .
result: inactive

query: # AC50 lookup, item `NC(=O)c1ccc(N)nc1`
result: 4.57 µM (active)

query: Given CC(C)[C@@H](Nc1ccc(C(F)(F)F)cc1Cl)C(=O)OC(C#N)c1cccc(Oc2ccccc2)c1 (some centres undefined) , state its recorded AC50.
result: 14.5 µM (active)
